- assay summary: Pharmacokinetics after intravenous and oral administration in rats
- Type: in vivo
- condition context: oral bioavailability
Decision: F >= 30% yields rule met, all other cases yield rule not met.

Check this compound for F at or above 30%: Cn1cc(Nc2ncc(Cl)c(NC3CCC4(CC3)CCN(c3ccc(C#N)cn3)CC4)n2)cn1
rule not met

Check this compound for F at or above 30%: Cc1cc(Nc2ncc(Cl)c(NC3CC4CN(C(=O)CC#N)CC4C3)n2)nn1C (stereo not drawn)
rule met

Check this compound for F at or above 30%: Cn1cc(Nc2ncc(Cl)c(NC3CCC4CN(C(=O)CC#N)CC4C3)n2)cn1 (stereo not drawn)
rule not met

Check this compound for F at or above 30%: CN(c1nc(Nc2cnn(C)c2)ncc1Cl)C1CC2CN(C(=O)CC#N)CC2C1 (stereo not drawn)
rule met

Check this compound for F at or above 30%: CN(c1nc(Nc2cnn(C)c2)ncc1Cl)C1CCC2(CCNC2)CC1 (single isomer, unassigned) [Ex. 3.10A]
rule not met

Check this compound for F at or above 30%: Cn1cc(Nc2ncc(Cl)c(NC3CC4CN(c5ccc(C#N)cn5)CC4C3)n2)cn1 (stereo not drawn)
rule met

Check this compound for F at or above 30%: Cn1cc(Nc2ncc(Cl)c(NC3CN(C(=O)CC#N)CC34CCCC4)n2)cn1 (stereo not drawn)
rule met

Check this compound for F at or above 30%: Cn1cc(Nc2ncc(Cl)c(NC3CCC4(CC3)CCN(C(=O)C(F)(F)F)CC4)n2)cn1
rule not met

Check this compound for F at or above 30%: Cn1cc(Nc2ncc(Cl)c(NC3CC4CN(S(C)(=O)=O)CC4C3)n2)cn1 (stereo not drawn)
rule not met

====

- assay summary: Compound stability in human liver microsomes
- Type: in vitro ADME
- condition context: pH 7.4; Human liver microsomes 0.5 mg protein/mL, compound 5 μM, NADPH 1.0 mM, 37° C.
outcome measure: half-life at 5 μM (h)
Number in h, nothing else.

Quick check: half-life at 5 μM of Cc1nn(C)cc1Nc1ncc(Cl)c(NC2CC3CN(C(=O)CC#N)CC3C2)n1 (stereo not shown) [Ex. 64] ?
1.05

Quick check: half-life at 5 μM of N#CCC(=O)N1CC2CC(Nc3nc(Nc4cnn(CCO)c4)ncc3Cl)CC2C1 (stereo not shown) [Ex. 44] ?
4.05

Quick check: half-life at 5 μM of CC(=O)N1CC2CC(Nc3nc(Nc4cc(C5CC5)[nH]n4)ncc3Cl)CC2C1 (stereo not shown) [Ex. 53] ?
4.44

Quick check: half-life at 5 μM of CC(=O)N1CC2CC(Nc3nc(Nc4cnn(C)c4)ncc3Cl)CC2C1 (stereo not shown) [Ex. 32] ?
3.37

Quick check: half-life at 5 μM of N#CCC(=O)N1CC2CC(Nc3nc(Nc4cnn(CC5CC5)c4)ncc3Cl)CC2C1 (stereo not shown) [Ex. 46] ?
0.655

Quick check: half-life at 5 μM of Cc1cc(Nc2ncc(Cl)c(NC3CC4CN(C(=O)CC#N)CC4C3)n2)nn1C (stereo not shown) [Ex. 39] ?
2.12

Quick check: half-life at 5 μM of CN(c1ccnc(Nc2cnn(C)c2)n1)C1CNCC12CCCC2 (stereo not shown) [Ex. 1] ?
3.05

Quick check: half-life at 5 μM of Cn1cc(Nc2ncc(Cl)c(NC3CC4CN(CC(F)(F)F)CC4C3)n2)cn1 (stereo not shown) [Ex. 35] ?
0.111

Quick check: half-life at 5 μM of Cn1cc(Nc2ncc(Cl)c(NC3CC4CN(S(C)(=O)=O)CC4C3)n2)cn1 (stereo not shown) [Ex. 31] ?
1.12

Quick check: half-life at 5 μM of Cc1cnc(Nc2cnn(C)c2)nc1NC1CC2CN(C(=O)CC#N)CC2C1 (stereo not shown) [Ex. 60] ?
4.07
